target: M3 muscarinic receptor (Homo sapiens, UniProt P20309); construct: expressed in transfected cells; host or cells: CHO (M3-CHO); assay: Functional mobilization of intracellular calcium (FLIPR), M3-CHO cells; format: cell-based; settings: 100% efficacy is the maximum response obtained with the Carbachol control
Sequence (P20309 whole entry): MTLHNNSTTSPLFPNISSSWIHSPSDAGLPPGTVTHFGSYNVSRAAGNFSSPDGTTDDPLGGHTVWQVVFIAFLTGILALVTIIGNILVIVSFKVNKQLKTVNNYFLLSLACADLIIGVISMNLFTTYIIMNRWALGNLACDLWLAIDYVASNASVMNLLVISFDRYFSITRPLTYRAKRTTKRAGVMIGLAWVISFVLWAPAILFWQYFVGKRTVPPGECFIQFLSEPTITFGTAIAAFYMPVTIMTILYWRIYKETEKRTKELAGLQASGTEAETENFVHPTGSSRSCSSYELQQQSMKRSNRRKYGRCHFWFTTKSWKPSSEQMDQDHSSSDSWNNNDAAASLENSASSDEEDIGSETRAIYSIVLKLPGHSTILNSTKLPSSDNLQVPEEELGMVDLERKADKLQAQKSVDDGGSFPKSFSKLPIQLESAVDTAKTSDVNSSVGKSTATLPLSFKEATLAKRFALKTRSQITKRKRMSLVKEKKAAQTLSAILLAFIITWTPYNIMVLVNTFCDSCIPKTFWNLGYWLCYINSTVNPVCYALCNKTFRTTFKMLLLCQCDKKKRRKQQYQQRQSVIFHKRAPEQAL
Measured quantity: Emax

Provide Emax value for the following molecule: CCON=C1CCC(N2CCC3(CC2)OC(=O)Nc2ccccc23)CC1 (stereo not shown)
25 to 100%

Provide Emax value for the following molecule: O=C1Nc2ccccc2C2(CCN(C3CCCCCC3)CC2)O1
< 25%

Provide Emax value for the following molecule: CCOC(=O)N1CCC(N2CCC3(CC2)OC(=O)Nc2ccccc23)CC1
25 to 100%

Provide Emax value for the following molecule: CC(C)CCN1CCC2(CC1)OC(=O)Nc1ccccc12
< 25%

Provide Emax value for the following molecule: CCOC(=O)N1CCC(CN2CCC3(CC2)OC(=O)Nc2ccccc23)CC1
25 to 100%

Provide Emax value for the following molecule: O=C1Nc2ccccc2C2(CCN(C3CC4CCC(C4)C3)CC2)O1 (stereo not shown)
25 to 100%

Provide Emax value for the following molecule: CN1C(=O)OC2(CCN(C3CCCCCC3)CC2)c2ccccc21
< 25%

Provide Emax value for the following molecule: O=C1Nc2ccccc2C2(CCN(CC3CCCOC3)CC2)O1 (stereo not shown)
< 25%

Provide Emax value for the following molecule: O=C1CCC(N2CCC3(CC2)OC(=O)Nc2ccccc23)CC1
< 25%

Provide Emax value for the following molecule: CCC(C)(C)C1CCC(N2CCC3(CC2)OC(=O)Nc2ccccc23)CC1 (stereo not shown)
< 25%

Provide Emax value for the following molecule: O=C1Nc2ccccc2C2(CCN(CC3CCCCC3)CC2)O1
< 25%

Provide Emax value for the following molecule: O=C1Nc2ccccc2C2(CCN(C3CCN(c4cnccn4)CC3)CC2)O1
25 to 100%

Provide Emax value for the following molecule: O=C1Nc2ccccc2C2(CCN(C3CCNCC3)CC2)O1
< 25%
